Origin of values: patent US4599414A

# Tested on: contractile response to histamine, terminal ileum
# PROCEDURE TEXT: Antihistaminic action: inhibition of contractile response to histamine (10^-6 M) in isolated terminal ileum
# Type: cell-based, guinea-pig
# CONDITION PARAMETERS: Cavia porcellus; antagonist 10^-7 M, after 1st washing; read-out: Inhibitory rate after 1st washing
ENDPOINT: inhibition at 0.1 µM (%)
Value expressed in %; do not type the unit.

Please review the entries below; each comes with its answer.
INSERT INTO measurements (molecule, number) VALUES
  ('Cn1c(=O)c2c(ncn2CCCN2CCCN(Cc3ccc(Cl)c(Cl)c3)CC2)n(C)c1=O', 55),
  ('Cn1c(=O)c2c(ncn2CCCN2CCCN(Cc3ccc(Cl)cc3Cl)CC2)n(C)c1=O', 59),
  ('CC(CN1c2ccccc2Sc2ccccc21)N(C)C (stereo not drawn) [(1), Promethazine, reference compound]', 77),
  ('Cn1c(=O)c2c(ncn2CCCN2CCCN(Cc3ccc([N+](=O)[O-])cc3)CC2)n(C)c1=O', 16);

query: # query: inhibition at 0.1 µM | item "Cn1c(=O)c2c(ncn2CCCN2CCCN(Cc3ccccc3)CC2)n(C)c1=O" | system: contractile response to histamine, terminal ileum
result: 10

query: Lookup: inhibition at 0.1 µM / contractile response to histamine, terminal ileum / "Cn1c(=O)c2c(ncn2CCCN2CCCN(c3ccccc3)CC2)n(C)c1=O"
result: 4

query: Lab note: need inhibition at 0.1 µM for "Cn1c(=O)c2c(ncn2CCCN2CCCN(Cc3ccccc3Cl)CC2)n(C)c1=O" on contractile response to histamine, terminal ileum, anyone have it?
result: 73

query: Observed inhibition at 0.1 µM on contractile response to histamine, terminal ileum for "Cn1c(=O)c2c(ncn2CCCN2CCCN(Cc3ccc(Cl)cc3)CC2)n(C)c1=O" , please.
result: 64

query: Form: Entry = "Cn1c(=O)c2c(ncn2CCCN2CCCN(Cc3ccc(F)cc3)CC2)n(C)c1=O" | System = contractile response to histamine, terminal ileum | inhibition at 0.1 µM = ____
result: 20

---

# Test system: contractile response to histamine, terminal ileum
# PROCEDURE TEXT: Antihistaminic action: inhibition of contractile response to histamine (10^-6 M) in isolated terminal ileum
# Assay type: cell-based, guinea-pig
# CONDITION PARAMETERS: Cavia porcellus, 0.05 h; antagonist 10^-7 M, 3 min contact, before washing; read-out: Inhibitory rate before washing
Rule: class 1 for inhibition at 0.1 µM not less than 80%, class 0 for anything less.

INSERT INTO results (compound, class_assignment) VALUES
  ('Cn1c(=O)c2c(ncn2CCCN2CCCN(Cc3ccc(F)cc3)CC2)n(C)c1=O', 'class 0');

query: I'd appreciate it if you could say whether "Cn1c(=O)c2c(ncn2CCCN2CCCN(c3ccccc3)CC2)n(C)c1=O" has inhibition at 0.1 µM at least equal to 80%.
result: class 0

query: Determine whether measured inhibition at 0.1 µM meets or exceeds 80% for CC(CN1c2ccccc2Sc2ccccc21)N(C)C (stereo not drawn) [(1), Promethazine, reference compound]
result: class 1

query: Please indicate if the recorded inhibition at 0.1 µM for "Cn1c(=O)c2c(ncn2CCCN2CCCN(Cc3ccc([N+](=O)[O-])cc3)CC2)n(C)c1=O" meets or exceeds 80%.
result: class 0

query: # bool: inhibition at 0.1 µM of "Cn1c(=O)c2c(ncn2CCCN2CCCN(Cc3ccc(Cl)c(Cl)c3)CC2)n(C)c1=O" >= 80%
result: class 0

query: Test whether the compound "Cn1c(=O)c2c(ncn2CCCN2CCCN(Cc3ccc(Cl)cc3)CC2)n(C)c1=O" records inhibition at 0.1 µM of 80% or higher.
result: class 1
